Hello, the source for this data is ChEMBL document CHEMBL5390320, in case you need it.

# system name: E3 ubiquitin-protein ligase CBL-B (Homo sapiens)
# Sequence (Q13191 whole entry): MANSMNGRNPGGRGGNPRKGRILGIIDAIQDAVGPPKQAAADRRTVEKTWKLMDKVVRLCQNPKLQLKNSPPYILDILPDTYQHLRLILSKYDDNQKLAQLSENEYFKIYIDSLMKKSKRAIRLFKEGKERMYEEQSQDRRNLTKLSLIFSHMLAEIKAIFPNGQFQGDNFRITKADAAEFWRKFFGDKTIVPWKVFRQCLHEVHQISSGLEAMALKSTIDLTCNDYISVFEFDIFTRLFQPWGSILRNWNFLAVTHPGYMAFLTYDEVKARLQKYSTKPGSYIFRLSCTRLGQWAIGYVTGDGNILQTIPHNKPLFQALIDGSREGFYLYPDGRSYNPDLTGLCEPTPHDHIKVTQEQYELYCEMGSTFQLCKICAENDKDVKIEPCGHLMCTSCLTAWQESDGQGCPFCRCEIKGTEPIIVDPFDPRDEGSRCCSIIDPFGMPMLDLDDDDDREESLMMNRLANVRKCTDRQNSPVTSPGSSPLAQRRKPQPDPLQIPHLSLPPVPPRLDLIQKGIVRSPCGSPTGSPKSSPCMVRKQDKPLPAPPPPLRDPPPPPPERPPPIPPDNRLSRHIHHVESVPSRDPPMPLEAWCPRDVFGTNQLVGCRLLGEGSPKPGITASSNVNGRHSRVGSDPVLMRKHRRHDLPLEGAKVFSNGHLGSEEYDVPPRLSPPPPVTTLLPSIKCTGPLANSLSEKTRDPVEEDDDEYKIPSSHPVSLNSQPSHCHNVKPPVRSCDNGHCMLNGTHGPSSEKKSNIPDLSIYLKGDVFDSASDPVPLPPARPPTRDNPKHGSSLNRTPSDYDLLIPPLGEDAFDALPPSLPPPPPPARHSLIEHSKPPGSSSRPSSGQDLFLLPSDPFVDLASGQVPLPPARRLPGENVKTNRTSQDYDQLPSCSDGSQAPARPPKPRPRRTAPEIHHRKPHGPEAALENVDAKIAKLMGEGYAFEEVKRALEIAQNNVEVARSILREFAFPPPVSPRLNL
# procedure summary: Inhibition of recombinant Cbl-b (unknown origin) ubiquitination incubated for 60 mins in presence of ATP by TR-FRET assay
readout label: IC50 (µM)
# output: bare number, implied unit µM

# IC50 (molecule: C[C@H]1CN(Cc2ccccc2C(=O)N[C@H]2N=C(c3ccccc3)c3ccncc3NC2=O)CCO1 ) is 50.5

----------
Please go through the items and note down their pEC50.
# system name: E3 ubiquitin-protein ligase CBL-B (Homo sapiens)
# procedure summary: Inhibition of Cbl-b in cryo-preserved human CD3-positive T cells assessed as increase in IL-2 production preincubated for 1 hr followed by alpha-CD3 coated stimulation for 24 hrs by flow cytometry method
# Assay type: cell-based, CD3-positive T cell
Interpret pEC50 as the negative base-10 log of the concentration measured in mol/L.

Form field, pEC50 with E3 ubiquitin-protein ligase CBL-B (Homo sapiens), item C[C@H]1CN(Cc2ccccc2C(=O)N[C@H]2N=C(c3ccccc3)c3ccc(C(=O)N4CCN(C)C(=O)C4)cc3NC2=O)CCO1 : 5.78

Fill in: E3 ubiquitin-protein ligase CBL-B (Homo sapiens) pEC50 for C[C@H]1CN(Cc2ccccc2C(=O)N[C@H]2N=C(c3ccccc3)c3ccccc3NC2=O)CCO1 = 4.85

Entry C[C@H]1CN(Cc2ccccc2C(=O)N[C@H]2N=C(c3ccccc3)c3ccncc3NC2=O)CCO1 , E3 ubiquitin-protein ligase CBL-B (Homo sapiens) data, pEC50 value: 6.39

Entry COCCNC(=O)c1ccc2c(c1)NC(=O)[C@@H](NC(=O)c1ccccc1CN1CCO[C@@H](C)C1)N=C2c1ccccc1 under E3 ubiquitin-protein ligase CBL-B (Homo sapiens) had pEC50 of 5.58
